System: Zika virus NS2B-NS3 protease (linked)
Experiment summary: Optimization screen NINDS Rhodamine qHTS for Zika virus inhibitors: Linked NS2B-NS3 protease assay
Experimental context: fluorogenic rhodamine substrate; series mostly up to 105 µM
Excerpt: Avindra Nath, Ph.D., National Institute of Neurological Disorders and Stroke (NINDS), Bethesda, MD Radhakrishnan Padmanabhan, Ph.D., Georgetown University (GU), Washington D.C. Zika Virus causes congenital defects, including microcephaly and is associated with Guillain-Barre syndrome, eningoencephalitis and myelitis in infected adult. […]
Results filed as inconclusive are left out. Calls of active or inactive are those of the source. The call rests on the fitted dose curve; in most records, active means well fitted inhibition curve with a large enough effect; inconclusive means small, poorly fitted or top-dose-only effect; inactive means no such curve, though single readings can be large or run the other way.
Endpoint label: Potency

INSERT INTO assay_data (molecule, endpoint_label, endpoint_result) VALUES
  ('O=C(Nc1ccc([N+](=O)[O-])cc1Cl)c1cc(Cl)ccc1O', 'Potency', '9.87 µM (active)'),
  ('CCCCOc1ccc(C2C(=O)N(C3CCCCC3)CC(=O)N2C2CCCCC2)cc1 (stereo not given)', 'Potency', 'inactive'),
  ('O=C(O)c1ccc(-n2nc(-c3ccccc3O)nc2-c2ccccc2O)cc1', 'Potency', '8.79 µM (active)'),
  ('CC(=O)Nc1ccc([C@H](C)C(=O)Nc2ncc(C(C)C)s2)cc1', 'Potency', 'inactive'),
  ('COc1c(C)c2c(c(O)c1C/C=C(\C)CCC(=O)OCCN1CCOCC1)C(=O)OC2', 'Potency', 'inactive');

###

Test system: Zika virus NS2B-NS3 protease (linked)
Experiment summary: Optimization screen NINDS Rhodamine qHTS for Zika virus inhibitors: Linked NS2B-NS3 protease assay
Experimental context: fluorogenic rhodamine substrate; series mostly up to 105 µM
Records with an inconclusive call do not appear. Calls of active or inactive are those of the source. Calls come from the whole dose curve; as a rule, active = well fitted inhibition curve with a large enough effect; inconclusive = small, poorly fitted or top-dose-only effect; inactive = no such curve, though single readings can be large or run the other way.
Outcome codes: active, inactive

INSERT INTO results (compound, class_name) VALUES
  ('CCc1nc(N)nc(N)c1-c1ccc(Cl)cc1', 'inactive'),
  ('OC(c1cc(C(F)(F)F)nc2c(C(F)(F)F)cccc12)C1CCCCN1 (centres undefined)', 'inactive'),
  ('CC=CCC(C)C(O)C1C(=O)NC(CC)C(=O)N(C)CC(=O)N(C)C(CC(C)C)C(=O)NC(C(C)C)C(=O)N(C)C(CC(C)C)C(=O)NC(C)C(=O)NC(C)C(=O)N(C)C(CC(C)C)C(=O)N(C)C(CC(C)C)C(=O)N(C)C(C(C)C)C(=O)N1C (centres undefined)', 'inactive'),
  ('S=c1nc[nH]c2nc[nH]c12', 'inactive'),
  ('NC(=O)C(=O)O', 'inactive'),
  ('Cc1ccccc1CNc1ncnc2c1ncn2C1OC(CO)C(O)C1O (centres undefined)', 'inactive'),
  ('N[C@H](C(=O)O)c1ccc(O)cc1', 'inactive'),
  ('CO[C@H]1C[C@@H](O[C@@H]2/C(C)=C/C[C@@H]3C[C@@H](C[C@]4(CC[C@H](C)[C@@H](C5CCCCC5)O4)O3)OC(=O)[C@@H]3C=C(C)/C(=N/O)[C@H]4OC/C(=C\C=C\[C@@H]2C)[C@]43O)O[C@@H](C)[C@H]1O', 'active'),
  ('CC(C)C[C@H](NC(=O)[C@H](Cc1ccccc1)NC(=O)c1cnccn1)B(O)O', 'inactive');
